Recorded values, source PubChem BioAssay (EPA / NIEHS).

Experiment: ATG_PBREM_CIS: Attagene CIS-FACTORIAL HepG2 Assay for human Phenobarbital-responsive Enhancer Module (PBREM) (AID 2282955)
Settings: HepG2 PBREM cis-reporter, Attagene multiplexed transcription; actives raise or lower the signal
Activity calls are given as the source filed them. How the source made its calls: active means hit-call score of the fitted dose curve at least 0.9, where 1 is the maximum; inactive means score below 0.9.
recorded_endpoint: outcome

1) c1ccc2ncccc2c1; inactive
2) OCCOCCOCCO; inactive
3) CCOc1ccc2[nH]cc(C(=O)NCc3ccccc3)c(=O)c2n1; inactive

====

Read-out: HGF (gene 3082)
Experiment: LTEA_HepaRG_HGF: Life Technologies and Expression Analysis (LTEA) Assay for Hepatocyte Growth Facto (HGF) using HepaRG (AID 2283505)
Conditions: mRNA level, 48 h; actives raise or lower the signal
Calls of active or inactive are those of the source. How the source made its calls: active means hit-call score of the fitted dose curve at least 0.9, where 1 is the maximum; inactive means score below 0.9.
Answer with one of the outcomes class 1 for active, class 0 for inactive

Incoming: Each compound tested received a call. Report the one for O=C(O)c1ccc2c(c1)nc(C(=O)NC1CCN(C3CC3)CC1)n2Cc1cc(-c2ccc(Cl)s2)on1 .
Outgoing: class 0

Incoming: What is the recorded call for this compound in the test? C[C@@H](Oc1ccc(CNC(=O)c2cccnc2Oc2ccc3c(c2)OCO3)c(F)c1)C(=O)O
Outgoing: class 0

Incoming: // param item: CCOC(N)=O ; yields the recorded call
Outgoing: class 0

Incoming: In this assay, the call recorded for CCCCCCCC/C=C\CCCCCCCC(=O)OC[C@@H](O)[C@H]1OC[C@H](O)[C@H]1O was what?
Outgoing: class 0

Incoming: Recorded call for C=CCc1cc(S(=O)(=O)c2ccc(O)c(CC=C)c2)ccc1O ?
Outgoing: class 1

Incoming: Record lookup: outcome of this test for Cc1ccc(S(=O)(=O)NC(=O)NN2CCCCCC2)cc1 ?
Outgoing: class 0

Incoming: Identify the outcome logged in this assay for the compound shown: CCCCCOC(C)=O
Outgoing: class 0

Incoming: Hi, do you know how CCCCN1C(=O)[C@@H]([C@H](O)C2CCCCC2)NC(=O)C12CCN(Cc1ccc(Oc3ccc(C(=O)O)cc3)cc1)CC2 came out in this test?
Outgoing: class 1

Incoming: Test call for this compound, please: c1ccc2ncccc2c1
Outgoing: class 0

Incoming: // outcome(item) with item = C[C@]12C=CC(=O)C=C1CC[C@H]1[C@@H]3C[C@@H](O)[C@](O)(C(=O)CO)[C@@]3(C)C[C@H](O)[C@@]12F
Outgoing: class 0

Incoming: Hi, do you know how c1ccc2cc3ccccc3cc2c1 came out in this test?
Outgoing: class 0

Incoming: How was NC(=O)NN=Cc1ccc([N+](=O)[O-])o1 classified in this test?
Outgoing: class 1

Incoming: I would be grateful if you could indicate the recorded call for CCn1nc(C)c2c1C(=O)NCC(c1ccc(O)cc1)=N2 .
Outgoing: class 0

Incoming: Please let me know the test result on file for CCCCCCOC(=O)CC(CC(=O)OCCCCCC)(OC(=O)CCC)C(=O)OCCCCCC .
Outgoing: class 0

Incoming: Recorded test outcome, item CCCCCCCCCC
Outgoing: class 0

Incoming: Entry Cc1ncc([C@@H](CCCCCCc2ccc3c(n2)NCCC3)CC(=O)O)cn1 : call = ?
Outgoing: class 0

Incoming: # lookup: test call for Cc1nccn1-c1ccc(Sc2cccc(C3(C(N)=O)CCOCC3)c2)cc1
Outgoing: class 1

====

Biological target: Cellular tumor antigen p53 (Homo sapiens) (UniProt P04637)
Sequence (P04637 whole entry, looked up): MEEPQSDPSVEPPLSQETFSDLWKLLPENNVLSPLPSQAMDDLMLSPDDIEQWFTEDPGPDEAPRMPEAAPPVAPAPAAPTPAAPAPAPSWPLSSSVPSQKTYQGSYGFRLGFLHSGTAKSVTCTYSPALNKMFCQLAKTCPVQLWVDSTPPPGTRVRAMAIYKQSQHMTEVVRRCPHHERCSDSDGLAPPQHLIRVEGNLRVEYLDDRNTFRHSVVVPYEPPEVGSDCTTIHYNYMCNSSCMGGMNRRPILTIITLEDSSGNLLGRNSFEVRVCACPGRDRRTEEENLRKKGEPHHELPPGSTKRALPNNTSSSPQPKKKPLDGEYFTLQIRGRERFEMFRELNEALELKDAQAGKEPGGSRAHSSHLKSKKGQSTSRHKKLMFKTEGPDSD
Assay: ATG_p53_CIS: Attagene CIS-FACTORIAL HepG2 Assay for human p53 Transcription Factor (AID 2282994)
Conditions: HepG2 p53 cis-element reporter, Attagene mRNA; actives raise or lower the signal
Active and inactive are the calls of the source. Rule for the calls: active = hit-call score of the fitted dose curve at least 0.9, where 1 is the maximum; inactive = score below 0.9.
The categories you may choose from are yes for active, no for inactive

Incoming: Hi team, can someone confirm the assay call for CCCCC(CC)C(=O)OCCOCCOCCOC(=O)C(CC)CCCC (stereo not given) ?
Outgoing: no

Incoming: Outcome? O=C(O)c1ccc2c(c1)nc(C(=O)NC1CCN(C3CC3)CC1)n2Cc1cc(-c2ccc(Cl)s2)on1
Outgoing: no

Incoming: What was the test verdict on CC1(C)C(=O)N(Cl)C(=O)N1Cl ?
Outgoing: no

Incoming: Test call for this compound, please: c1ccc2cc3ccccc3cc2c1
Outgoing: no

Incoming: Which result was noted for this compound in the test: CCc1ccc(O)c(C(C)(C)C)c1
Outgoing: no

Incoming: What outcome does the record of this test show for FC(F)=C(F)C(F)(F)C(F)(F)C(F)(F)C(F)(F)C(F)(F)C(F)(F)F ?
Outgoing: no

Incoming: Assay outcome for CCc1cccc(CC)c1N : what was it?
Outgoing: no

Incoming: Please let me know the test result on file for OCCOCCOCCO .
Outgoing: no

Incoming: What was the test verdict on c1ccc(C(O[C@@H]2CCCN(CCc3ccc4c(c3)OCO4)C2)c2ccccc2)cc1 ?
Outgoing: yes

Incoming: Please indicate how the test categorized NC(=O)NN=Cc1ccc([N+](=O)[O-])o1 .
Outgoing: no
